- targetOrTestSystem: IGF-1R (Homo sapiens (Human))
- Sequence (P08069 31-1367): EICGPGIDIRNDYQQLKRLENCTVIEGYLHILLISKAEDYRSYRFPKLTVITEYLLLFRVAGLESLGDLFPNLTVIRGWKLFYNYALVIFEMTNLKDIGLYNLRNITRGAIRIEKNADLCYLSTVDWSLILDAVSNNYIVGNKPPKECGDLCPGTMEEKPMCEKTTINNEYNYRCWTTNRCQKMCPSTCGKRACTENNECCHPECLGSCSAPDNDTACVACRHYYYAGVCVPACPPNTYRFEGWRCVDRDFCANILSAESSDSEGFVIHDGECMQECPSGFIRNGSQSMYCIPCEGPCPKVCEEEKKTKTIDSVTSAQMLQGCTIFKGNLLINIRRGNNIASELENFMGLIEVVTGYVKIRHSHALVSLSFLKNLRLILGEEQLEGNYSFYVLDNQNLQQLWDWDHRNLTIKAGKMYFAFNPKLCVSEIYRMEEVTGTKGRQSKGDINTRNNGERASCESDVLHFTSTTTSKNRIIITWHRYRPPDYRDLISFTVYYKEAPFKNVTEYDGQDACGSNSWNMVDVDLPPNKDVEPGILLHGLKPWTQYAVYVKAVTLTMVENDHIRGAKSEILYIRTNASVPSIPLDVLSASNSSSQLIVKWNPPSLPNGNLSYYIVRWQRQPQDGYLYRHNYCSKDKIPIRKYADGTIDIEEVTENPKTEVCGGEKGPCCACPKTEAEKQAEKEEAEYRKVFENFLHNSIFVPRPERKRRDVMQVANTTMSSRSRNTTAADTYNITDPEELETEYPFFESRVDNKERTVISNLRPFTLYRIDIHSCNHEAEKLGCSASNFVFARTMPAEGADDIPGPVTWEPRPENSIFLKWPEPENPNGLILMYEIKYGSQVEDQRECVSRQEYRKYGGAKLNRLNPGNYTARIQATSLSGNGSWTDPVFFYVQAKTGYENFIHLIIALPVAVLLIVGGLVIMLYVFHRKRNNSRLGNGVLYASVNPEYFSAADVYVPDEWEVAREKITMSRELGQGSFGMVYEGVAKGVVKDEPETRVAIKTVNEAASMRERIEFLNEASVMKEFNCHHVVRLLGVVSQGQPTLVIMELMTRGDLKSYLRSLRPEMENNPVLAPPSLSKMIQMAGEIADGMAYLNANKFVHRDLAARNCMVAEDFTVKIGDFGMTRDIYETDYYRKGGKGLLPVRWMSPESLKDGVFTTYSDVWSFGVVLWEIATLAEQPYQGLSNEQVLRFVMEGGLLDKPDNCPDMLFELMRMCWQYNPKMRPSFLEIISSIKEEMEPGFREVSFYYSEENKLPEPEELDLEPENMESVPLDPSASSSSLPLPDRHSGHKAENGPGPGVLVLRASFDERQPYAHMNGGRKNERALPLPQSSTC
- runDescription: KinaseProfiler off-target kinase profiling
- Type: biochemical
- protocolConditions: 10 μM, ATP near Km
endpoint: Avg. POC (POC)

The following compounds have reported results that may help.
INSERT INTO assay_data (compound, endpoint, measvalue) VALUES
  ('Cc1c(-c2ccc(=O)n(C)c2)nn(-c2ccccc2)c1NC(=O)NC1CN(CC(F)(F)F)Cc2ccccc21 (stereo not shown)', 'Avg. POC', 60.5),
  ('COCc1ccc2c(c1)C(NC(=O)Nc1c(C)c(-c3cnn(C)c3)nn1-c1ccccc1)COC2 (stereo not shown)', 'Avg. POC', 84.5);

A. Cc1c(-c2cnn(C)c2)nn(-c2ccccc2)c1NC(=O)NC1CCOc2cc(F)ccc21 (stereo not shown)
B. Cc1c(-c2cnn(C)c2)nn(-c2ccccc2)c1NC(=O)N[C@H]1CCCc2ccccc21
// query Field: entry with larger Avg. POC (options A / B ). Please respond with the label that marks your chosen entry.
// result A

Value source: patent US10351575B2
